# assayTarget: Solute carrier family 15 member 1 (Homo sapiens)
# testSummary: Activation of human PEPT1 expressed in MDCK cells
Where a SMILES comes first, the peptide text is derived from it.
quantityKind: EC50 (µM)

1. CC(C)[C@H](NC(=O)[C@@H](N)Cc1c[nH]c2ccccc12)C(=O)O (H-Trp-Val-OH)
2. N[C@@H](Cc1c[nH]cn1)C(=O)NCC(=O)O (H-His-Gly-OH)
Ask: Which of the two gives a bigger number for EC50: 1 or 2 ? Identify your pick by its label.
Reply: 2
(2: 280 µM, 1: 50 µM)

* * *

# assayTarget: Solute carrier family 15 member 1 (Homo sapiens)
# testSummary: Binding affinity to human PEPT1 assessed as inhibition of [14C]Gly-Sar uptake in MDCK cells
# Assay type: functional, cell-based
# measurementParameters: read-out: IC50
pIC50: −log10 of the molar value. Where a SMILES comes first, the peptide text is derived from it.
quantityKind: pIC50

// known answers, use as guide
{"columns": ["molecule", "pIC50"],
 "data": [
  ["C[C@H](NC(=O)[C@@H](N)Cc1ccc(O)cc1)C(=O)O", 3.96],
  ["C[C@H](NC(=O)[C@@H](N)Cc1c[nH]c2ccccc12)C(=O)O (H-Trp-Ala-OH)", 3.59],
  ["NCC(=O)N1CCC[C@H]1C(=O)O [GLYCYL PROLINE] (H-Gly-Pro-OH)", 3.48]
]}

I. NCC(=O)N[C@@H](Cc1ccc(O)cc1)C(=O)O (H-Gly-Tyr-OH)
II. NCCCC[C@H](N)C(=O)N1CCC[C@@H]1C(=O)O
Ask: When their pIC50 values are compared, which is larger, I or II ? Answer format: the label of the selected item.
Reply: I

* * *

# assayTarget: Solute carrier family 15 member 1 (Homo sapiens, UniProt P46059)
# testSummary: Binding affinity to human PEPT1 assessed as inhibition of [14C]Gly-Sar uptake in MDCK cells
# Assay type: functional, cell-based
# measurementParameters: read-out: IC50
pIC50: −log10 of the molar value. Where a SMILES comes first, the peptide text is derived from it.
quantityKind: pIC50

{"columns": ["molecule", "pIC50"],
 "data": [
  ["NC(=O)[C@H](Cc1ccc(O)cc1)NC(=O)[C@@H](N)Cc1ccc(O)cc1 (H-Tyr-Tyr-NH2)", 2.04],
  ["C[C@H](N)C(=O)N[C@@H](C)C(=O)O (H-Ala-Ala-OH)", 3.60],
  ["N[C@@H](Cc1c[nH]c2ccccc12)C(=O)NCC(=O)O (H-Trp-Gly-OH)", 3.14],
  ["CC(C)C[C@H](NC(=O)CN)C(=O)N[C@@H](Cc1ccccc1)C(=O)O (H-Gly-Leu-Phe-OH)", 3.01]
]}

P. NCCCC[C@H](N)C(=O)N[C@@H](Cc1c[nH]c2ccccc12)C(=O)O (H-Lys-Trp-OH)
Q. CC(C)[C@H](N)C(=O)N[C@H](C(=O)O)C(C)C [VAL-VAL] (H-Val-Val-OH)
R. N[C@@H](Cc1c[nH]c2ccccc12)C(=O)N[C@@H](Cc1ccc(O)cc1)C(=O)O (H-Trp-Tyr-OH)
Ask: Hello, I need these entries ordered by pIC50, highest reading first. Thanks! Put the labels in the requested order and list them out.
Reply: R, Q, P
(R: 4.10, Q: 3.68, P: 3.18)

A. NCC(=O)N[C@@H](Cc1ccccc1)C(=O)O (H-Gly-Phe-OH)
B. NC(=O)CC[C@H](N)C(=O)N[C@@H](CCC(=O)O)C(=O)O (H-Gln-Glu-OH)
Ask: Among A and B , whose measured pIC50 is the smaller figure? Answer format: the label of the selected item.
Reply: B
(B: 3.29, A: 3.77)

* * *

# assayTarget: Solute carrier family 15 member 1 (Homo sapiens)
# testSummary: Binding affinity to human PEPT1 assessed as inhibition of [14C]Gly-Sar uptake in MDCK cells
# Assay type: functional, cell-based
# measurementParameters: read-out: IC50
Where a SMILES comes first, the peptide text is derived from it.
quantityKind: IC50 (µM)

{"columns": ["molecule", "assayTarget", "readoutValue"],
 "data": [
  ["N[C@@H](CO)C(=O)N[C@@H](CO)C(=O)O (H-Ser-Ser-OH)", "Solute carrier family 15 member 1 (Homo sapiens)", 130]
]}

a. C[C@H](N)C(=O)N[C@@H](Cc1c[nH]c2ccccc12)C(=O)O (H-Ala-Trp-OH)
b. NCCCC[C@H](NC(=O)CN)C(=O)O (H-Gly-Lys-OH)
c. NCCCC[C@H](NC(=O)[C@@H](N)CCC(=O)O)C(=O)O (H-Glu-Lys-OH)
d. CC(C)[C@H](N)C(=O)N[C@@H](Cc1c[nH]c2ccccc12)C(=O)O [VALYLTRYPTOPHAN] (H-Val-Trp-OH)
Ask: In this exercise, place the 4 molecules in ascending sequence of their recorded IC50. Rank the items, then write their labels in that order.
Reply: d, a, c, b
(d: 100 µM, a: 260 µM, c: 720 µM, b: 1250 µM)

I. N[C@@H](Cc1c[nH]c2ccccc12)C(=O)N[C@@H](Cc1c[nH]c2ccccc12)C(=O)O (H-Trp-Trp-OH)
II. N[C@@H](CCC(=O)O)C(=O)N[C@@H](CCC(=O)O)C(=O)O (H-Glu-Glu-OH)
III. C[C@H](NC(=O)[C@@H](N)Cc1ccccc1)C(N)=O
Ask: Write the entries in order, lowest recorded IC50 first. Answer by listing the labels in the requested order.
Reply: I, II, III

* * *

# assayTarget: Solute carrier family 15 member 1 (Homo sapiens, UniProt P46059)
# testSummary: Binding affinity to human PEPT1 assessed as inhibition of [14C]Gly-Sar uptake in MDCK cells
# Type: functional, cell-based
# measurementParameters: read-out: IC50
Where a SMILES comes first, the peptide text is derived from it.
quantityKind: IC50 (µM)

The examples below pair each entry with its known result.
{"columns": ["compound", "readoutValue"],
 "data": [
  ["NC(N)=NCCC[C@H](N)C(=O)NCC(=O)O (H-Arg-Gly-OH)", 390],
  ["O=C(O)CC[C@H](NC(=O)[C@@H]1CCCN1)C(=O)O (H-Pro-Glu-OH)", 12300],
  ["C[C@H](N)C(=O)N[C@@H](Cc1ccccc1)C(=O)O", 70],
  ["NCCCC[C@H](N)C(=O)N[C@@H](CCC(=O)O)C(=O)O (H-Lys-Glu-OH)", 820],
  ["N[C@@H](CCC(=O)O)C(=O)NCC(=O)O (H-Glu-Gly-OH)", 390]
]}

a. CC(C)C[C@H](NC(=O)CN)C(=O)O
b. NCCCC[C@H](NC(=O)[C@@H](N)CCCCN)C(=O)O
c. NCC(=O)N[C@@H](Cc1c[nH]c2ccccc12)C(=O)O (H-Gly-Trp-OH)
d. NCC(=O)NCC(=O)NCC(=O)O
Ask: Sort ascending by IC50. Answer format: the labels, in the requested order.
Reply: a, c, d, b

* * *

# assayTarget: Solute carrier family 15 member 1 (Homo sapiens)
# Sequence (P46059 whole entry): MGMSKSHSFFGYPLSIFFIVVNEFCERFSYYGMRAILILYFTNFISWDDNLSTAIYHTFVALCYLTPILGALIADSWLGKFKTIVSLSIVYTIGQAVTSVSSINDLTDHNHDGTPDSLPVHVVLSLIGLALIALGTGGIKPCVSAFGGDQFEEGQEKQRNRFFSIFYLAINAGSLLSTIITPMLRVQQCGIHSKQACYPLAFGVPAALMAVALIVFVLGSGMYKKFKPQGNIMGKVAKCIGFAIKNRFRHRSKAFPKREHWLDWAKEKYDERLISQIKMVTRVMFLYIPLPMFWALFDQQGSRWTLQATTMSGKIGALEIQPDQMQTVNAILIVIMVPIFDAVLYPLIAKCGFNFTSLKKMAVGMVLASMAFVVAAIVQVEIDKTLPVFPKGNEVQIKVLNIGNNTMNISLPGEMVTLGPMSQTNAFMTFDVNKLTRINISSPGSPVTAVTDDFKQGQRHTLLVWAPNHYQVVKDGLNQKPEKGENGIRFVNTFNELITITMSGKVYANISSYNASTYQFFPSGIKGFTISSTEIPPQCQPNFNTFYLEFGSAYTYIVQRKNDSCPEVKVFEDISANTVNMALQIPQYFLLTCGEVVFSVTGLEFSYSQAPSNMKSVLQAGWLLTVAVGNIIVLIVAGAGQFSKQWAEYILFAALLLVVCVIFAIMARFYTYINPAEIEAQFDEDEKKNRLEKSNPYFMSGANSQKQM
# testSummary: Binding affinity to human PEPT1 assessed as inhibition of [14C]Gly-Sar uptake in MDCK cells
# Format: functional, cell-based
# measurementParameters: read-out: IC50
pIC50: −log10 of the molar value. Where a SMILES comes first, the peptide text is derived from it.
quantityKind: pIC50

A. O=C(O)C[C@H](NC(=O)[C@@H]1CCCN1)C(=O)O (H-Pro-Asp-OH)
B. N[C@@H](Cc1ccc(O)cc1)C(=O)NCC(=O)O
Ask: Smaller pIC50 value? Options are A and B # answer = label of selected item
Reply: A
(A: 2.04, B: 3.48)

Data provenance: ChEMBL document CHEMBL1148644
